Target: T1, human 5T4ECDHis (mature protein of SEQ ID NO: 99) (human, UniProt Q13641 32-355)
T1 construct: ECD of human 5T4 (aa 1-355 of Uniprot Q13641) with C-terminal His tag; residues 1-31 are the signal peptide; also called ECD of human 5T4 with a C-terminal His tag
T1 sequence: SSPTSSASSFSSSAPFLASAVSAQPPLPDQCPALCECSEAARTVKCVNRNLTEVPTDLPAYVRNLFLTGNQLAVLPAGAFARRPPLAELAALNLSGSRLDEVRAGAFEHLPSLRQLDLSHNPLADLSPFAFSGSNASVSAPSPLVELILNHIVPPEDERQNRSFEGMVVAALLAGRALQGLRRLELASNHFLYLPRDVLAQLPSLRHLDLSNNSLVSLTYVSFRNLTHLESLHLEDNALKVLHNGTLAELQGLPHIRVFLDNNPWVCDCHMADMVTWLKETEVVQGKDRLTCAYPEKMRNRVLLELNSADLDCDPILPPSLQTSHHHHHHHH
Experiment: BLI cross-block; competitor (immobilised): IgG1-5T4-H8-FEAR
The following binders are shown together with reported corrected association response values.
The reply should be a number in nm, with the unit left off.

// known answers, use as guide
* IgG1-5T4-106-FEAR (antibody, V domains shown, Monospecific, bivalent human IgG1 kappa with L234F, L235E, D265A, K409R (FEAR)) VH: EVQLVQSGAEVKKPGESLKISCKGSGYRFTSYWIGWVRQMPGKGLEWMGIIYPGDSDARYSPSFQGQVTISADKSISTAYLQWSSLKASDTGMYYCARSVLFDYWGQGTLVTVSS VL: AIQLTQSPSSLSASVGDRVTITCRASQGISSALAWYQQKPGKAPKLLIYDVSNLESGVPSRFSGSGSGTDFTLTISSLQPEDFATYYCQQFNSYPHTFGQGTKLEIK | -0.01
* IgG1-5T4-076-FEAR (antibody, V domains shown, Monospecific, bivalent human IgG1 kappa with L234F, L235E, D265A, K409R (FEAR)) VH: QVQLVQSGAEVKKPGASVKVSCKASGYTFTSYGISWVRQAPGQGLEWMGWISAYNGNTNYAQKLQGRVTMTTDTSTRTAYMELRSLRSDDTAVYYCARDPGYFDWLYGDYWGQGTLVTVSS VL: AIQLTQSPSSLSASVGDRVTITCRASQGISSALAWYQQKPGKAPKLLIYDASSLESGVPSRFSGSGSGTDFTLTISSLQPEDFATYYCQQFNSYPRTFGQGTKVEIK | -0.02
* IgG1-5T4-A3-F405L (antibody, V domains shown, Variable region of A3 of WO2007106744 in a human IgG1 backbone with F405L; also called surrogate A3 antibody) VH: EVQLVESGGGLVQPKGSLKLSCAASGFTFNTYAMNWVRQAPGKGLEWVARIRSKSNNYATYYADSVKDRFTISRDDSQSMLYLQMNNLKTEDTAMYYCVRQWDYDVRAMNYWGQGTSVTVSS VL: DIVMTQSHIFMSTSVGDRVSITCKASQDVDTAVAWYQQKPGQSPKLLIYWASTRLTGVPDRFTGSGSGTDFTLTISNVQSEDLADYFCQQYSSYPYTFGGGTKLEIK | 0.49
* IgG1-5T4-085-FEAR (antibody, V domains shown, Monospecific, bivalent human IgG1 kappa with L234F, L235E, D265A, K409R (FEAR)) VH: EVQLLESGGGLVQPGGSLRLSCAASGFTFSSYAMSWVRQAPGKGLEWVSAISGSGGSTYNADSVKGRFTIFRDNSKNTLYLHMNSLRAEDTAVYYCARDPGYNNVEYLDHWGQGTLVTVSS VL: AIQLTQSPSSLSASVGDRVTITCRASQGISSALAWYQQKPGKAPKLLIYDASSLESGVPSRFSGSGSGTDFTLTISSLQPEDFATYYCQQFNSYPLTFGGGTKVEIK | -0.02

Query :: Need corrected association response, item IgG1-5T4-A1-F405L (antibody, V domains shown, Variable region of A1 of WO2007106744 in a human IgG1 backbone with F405L; also called surrogate A1 antibody) VH: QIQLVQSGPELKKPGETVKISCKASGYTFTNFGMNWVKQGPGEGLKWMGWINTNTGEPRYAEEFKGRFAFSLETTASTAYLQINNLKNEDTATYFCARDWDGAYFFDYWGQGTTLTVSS VL: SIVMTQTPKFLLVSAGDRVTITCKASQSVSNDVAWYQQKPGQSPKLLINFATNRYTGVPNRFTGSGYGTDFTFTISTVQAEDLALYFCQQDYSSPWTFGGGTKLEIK
Result :: 0.64

Query :: Reported corrected association response for IgG1-5T4-207-FEAR (antibody, V domains shown, Monospecific, bivalent IgG1 FEAR) VH: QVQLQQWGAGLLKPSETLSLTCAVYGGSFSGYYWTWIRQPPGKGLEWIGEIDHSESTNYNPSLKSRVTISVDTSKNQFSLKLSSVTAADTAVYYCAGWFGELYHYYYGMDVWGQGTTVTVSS VL: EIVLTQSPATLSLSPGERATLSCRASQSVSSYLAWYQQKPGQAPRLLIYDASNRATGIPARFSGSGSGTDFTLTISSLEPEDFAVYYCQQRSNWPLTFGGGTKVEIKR : what is it?
Result :: -0.01

Origin of values: patent US20230257479A1
